Each entry below carries its recorded Percent Effect.
Tested on: Trypanosoma brucei
Experiment: Trypanosoma brucei 72 hour study
Type: functional, organism-based
Parameters: scale not given: in the data most compounds retested in dose-response had high values
Details: 30 µM; 30.03 µM
Among all 66,000 compounds or so, about 960 (1.5%) showed an effect of 50% or more. Only a selection was taken, and strong results are over-represented in it overall.
Your answer is read as %, so omit the unit and give the number.

Example cases with answers are listed next.
# Smiles Text, System Under Test, Percent Effect (%)
rows = [
    ("Cn1cc(N2CC3(CCN(Cc4ccoc4)CC3)OCC2=O)cn1.O=C(O)C(F)(F)F", "Trypanosoma brucei", -14.91),
    ("Cc1ncoc1C(=O)N1C[C@H]2CCC[C@@]2(COCc2cccnc2)C1.O=C(O)C(F)(F)F", "Trypanosoma brucei", 18.22),
]

Task: Request the reported Percent Effect associated with O=C(C1=CCCC1)N1CCO[C@H]2[C@@H](Oc3ccccn3)CC[C@@H]21.O=C(O)C(F)(F)F
Output: 21.55

Task: Request the reported Percent Effect associated with Cc1ccc(N2CCN(C(=O)CCc3n[nH]c(C)c3C)CC2=O)cc1
Output: -42.04

Task: Request the reported Percent Effect associated with CCCN1CCCn2c(nc(CNC(=O)c3cnoc3C)cc2=O)C1.O=C(O)C(F)(F)F
Output: 19.21

###

Each entry below carries its recorded Percent Effect.
Tested on: Trypanosoma brucei
Experiment: Trypanosoma brucei 72 hour study
Type: functional, organism-based
Set-up: scale not given: in the data most compounds retested in dose-response had high values
Settings: 30 µM; 30.03 µM
In all, about 66,000 compounds went through this assay and about 960 (1.5%) showed an effect of 50% or more. Many of the other results were omitted from the sample, so strong results are more common in it than they were.
Your answer is read as %, so omit the unit and give the number.

# Compound, System Under Test, Experimental Value
rows = [
    ("Cc1ccccc1OCC1CCCN(C(=O)CN(C)C2CCNCC2)C1 (stereo not given)", "Trypanosoma brucei", 59.87),
    ("CN(C)C(=O)CN1CCn2cc(Cn3cccn3)nc2C1.O=C(O)C(F)(F)F.O=C(O)C(F)(F)F", "Trypanosoma brucei", -43.32),
    ("O=C1O[C@@H]2CN(CCc3ccccc3)C[C@@H]2N1CCCN1CCOCC1", "Trypanosoma brucei", -26.55),
    ("COCC(=O)N1CCCC(COc2ccccc2C)C1 (stereo not given)", "Trypanosoma brucei", -51.53),
    ("CNC(=O)c1ccc(CN(C)C(=O)Nc2nnc(C(C)C)s2)cc1", "Trypanosoma brucei", 1.168),
]

Task: Request the reported Percent Effect associated with Cc1cccc(OCC2CCCN(C(=O)CN(C)C3CCNCC3)C2)c1 (stereo not given)
Output: 6.222

Task: Request the reported Percent Effect associated with O=C(O)C(F)(F)F.O=c1ccc2c(n1CC1CCOCC1)CCN(Cc1ccoc1)CC2
Output: -13.76

Task: Request the reported Percent Effect associated with Cc1ccc(CC(NC(=O)CCS(C)(=O)=O)c2ccccn2)cc1 (stereo not given)
Output: -49.38

Task: Request the reported Percent Effect associated with CCCn1cc(-c2ccnc(NC3CCCc4ccccc43)n2)c(C)n1 (stereo not given)
Output: 15.8

Task: Request the reported Percent Effect associated with CCC[C@]12CN3C[C@](CCC)(CN(C1)C3c1[nH]c(=O)[nH]c(=O)c1C)C2=O (stereo not given in full)
Output: -52.93

Source listed as ChEMBL document CHEMBL3988442.
